system_tested: Glucose-dependent insulinotropic receptor (Homo sapiens)
method_notes: Agonist activity at human GPR119 expressed in CHOK1 cells assessed as cAMP accumulation after 1 hr by ultra LANCE assay relative to GSK1292263
Type: functional, cell-based
# note: boundary value 70% maps to class 0; %max below it maps to class 1

Use the examples below as a reference point.
CC(C)(C)OC(=O)N1[C@@H]2CC[C@H]1C[C@H](Nc1ncnc3c(Nc4ccc(C#N)cc4F)ncnc13)C2 ... class 1
CC(C)(C)OC(=O)N1[C@@H]2CC[C@H]1C[C@H](Nc1ncnc3c(Nc4ccc(S(C)(=O)=O)cc4)ncnc13)C2 ... class 1
CC(C)(C)OC(=O)N1C[C@@H]2CC[C@H]1C[C@H]2Nc1ncnc2c(Nc3ccc(C#N)cc3F)ncnc12 (relative stereo) ... class 1
CC(C)(C)OC(=O)N1[C@@H]2CC[C@H]1C[C@H](Oc1ncnc3c(Nc4ccc(C#N)cc4F)ncnc13)C2 ... class 1
CC(C)(C)OC(=O)N1CCC(Nc2ncnc3c(Nc4ccc(S(C)(=O)=O)cc4)ncnc23)CC1 ... class 1
CC(C)(C)OC(=O)N1[C@@H]2CC[C@H]1C[C@@H](Nc1ncnc3c(Nc4ccc(S(C)(=O)=O)cc4)ncnc13)C2 ... class 0

Enquiry: Consider CC(C)(C)OC(=O)N1[C@@H]2CC[C@H]1C[C@@H](Nc1ncnc3c(Nc4ccc(C#N)cc4F)ncnc13)C2 . Does its %max lie strictly below 70%?
Return: class 0

Enquiry: Consider CC(C)(C)OC(=O)N1[C@@H]2CC[C@H]1C[C@@H](Nc1ncnc3c(Nc4ccc(S(C)(=O)=O)cc4F)ncnc13)C2 . Does its %max lie strictly below 70%?
Return: class 0

Cited source: ChEMBL document CHEMBL4229527
